Molecular target: humanized development candidate monoclonal antibody IgG4 (hIgG4)
Assay: Gyrolab, mAb as capture, hIgG4 1.6 ng/ml
READOUT_NAME: Av. Resp.
// return a plain number; no unit text

As a guide, the following entries are already answered.
1) rabbit anti-human IgG monoclonal antibody clone 11G5 (antibody, V domains shown) VH: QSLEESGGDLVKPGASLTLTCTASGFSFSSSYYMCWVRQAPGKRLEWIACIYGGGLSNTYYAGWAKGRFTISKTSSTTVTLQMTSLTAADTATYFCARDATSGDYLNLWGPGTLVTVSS VL: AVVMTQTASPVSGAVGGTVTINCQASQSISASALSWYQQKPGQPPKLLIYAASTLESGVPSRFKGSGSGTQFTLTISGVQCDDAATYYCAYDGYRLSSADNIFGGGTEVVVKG : 9.8
2) rabbit anti-human IgG monoclonal antibody clone 2C5 (antibody, V domains shown) VH: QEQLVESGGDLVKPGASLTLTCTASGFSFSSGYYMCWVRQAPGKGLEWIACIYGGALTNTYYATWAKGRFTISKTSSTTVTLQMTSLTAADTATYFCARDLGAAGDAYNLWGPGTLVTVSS VL: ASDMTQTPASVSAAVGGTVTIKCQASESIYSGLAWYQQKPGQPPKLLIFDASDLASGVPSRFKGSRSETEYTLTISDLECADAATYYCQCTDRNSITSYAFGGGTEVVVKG : 3

API: the following record is the query input.
Bench note: what Av. Resp. did rabbit anti-human IgG monoclonal antibody clone 11F9 (antibody, V domains shown) VH: QQQLEESGGGLVQPEGSLTLTCIASGFSFSSSHWICWVRQAPGKGLEWIACMSTSSGSTYDANWAKGRFTISKTSSTTVTLQMTSLTAADTATYFCARDVGGSTTYFDLWGPGTLVTVSS VL: AYDMTQTPASVSEPVGGTVTIKCQASQSISNELSWYQQKPGQPPKLLIYRASTLASGVPSRFKGSGSGTQFTLTINGVECADAATYYCQQGYSISNVDNTFGGGTEVVVKG show? 5
